Tested on: MDA-MB-468 breast
Assay: NCI-60 one-dose screen, 48 h
Details: 10 µM unless noted
Protocol: Growth inhibition of the MDA-MB-468 human Breast tumor cell line is measured as a screen for anti-cancer activity. Cells are grown in 96 well plates and exposed to the test compound for 48 hours. Compounds are tested at a single concentration, which is 10^-5 M for most compounds. The reported endpoint is percent growth (GI% or GIPRCNT), where numbers from 0 - 100% represent growth inhibition, and numbers from -100% - 0 represent cell death. […]
Compounds without any hit were thinned out: in the full panel of roughly 83,000, 20% have a hit. Activity calls are given as the source filed them. The calls were made as follows: active = growth percent below 10; inactive = the rest.
Outcome codes: active, inactive

{"Compound": "COc1cc(-c2nc(Nc3nc4ccccc4[nH]3)nc(N)c2C#N)cc(OC)c1OC", "Target of assay": "MDA-MB-468 breast", "Group label": "inactive"}
{"Compound": "Cc1nn(-c2ccccc2)c2ncnc(N/N=C/c3ccccc3)c12", "Target of assay": "MDA-MB-468 breast", "Group label": "inactive"}
{"Compound": "O=S(=O)(NCCCNc1nccc(-c2[nH]c(-c3ccccc3)nc2-c2ccc(Cl)c(O)c2)n1)c1ccc(Br)cc1", "Target of assay": "MDA-MB-468 breast", "Group label": "inactive"}
{"Compound": "N[C@H](C(=O)O)[C@@H]1CC(Cl)=NO1", "Target of assay": "MDA-MB-468 breast", "Group label": "inactive"}
{"Compound": "COc1ccc2oc(=O)cc(CN3C(=O)S/C(=C\\c4ccc(Cl)cc4)C3=O)c2c1", "Target of assay": "MDA-MB-468 breast", "Group label": "inactive"}
{"Compound": "COc1cccc(CC(C)=C(c2ccc(OCCCN(C)C)cc2)c2ccc(OCCCN(C)C)cc2)c1", "Target of assay": "MDA-MB-468 breast", "Group label": "active"}
{"Compound": "CCOC(=O)N1CCN(CCCCOc2ccc(C(C)(C)CC)cc2)CC1", "Target of assay": "MDA-MB-468 breast", "Group label": "inactive"}
{"Compound": "Cc1cccc(NC(=O)c2sc3nc4c(cc3c2N)C(=O)CCC4)c1", "Target of assay": "MDA-MB-468 breast", "Group label": "inactive"}
{"Compound": "COc1nc2ccccc2cc1-c1nc2c(cnn2-c2ccccc2)c(=O)[nH]1", "Target of assay": "MDA-MB-468 breast", "Group label": "inactive"}
{"Compound": "O=c1ccc2nc(-c3ccccn3)nn(-c3ccccc3)c-2c1", "Target of assay": "MDA-MB-468 breast", "Group label": "active"}
{"Compound": "COc1cc2cc(Oc3ccc(NC(=O)Nc4cccc(C(F)(F)F)c4)cc3)c(C)nc2cc1OCCN(C)C", "Target of assay": "MDA-MB-468 breast", "Group label": "inactive"}
{"Compound": "O=C(Nc1ccc(-n2ccc3c(NC(=O)c4ccccc4)nccc32)cc1)c1cccc(C(F)(F)F)c1", "Target of assay": "MDA-MB-468 breast", "Group label": "inactive"}
{"Compound": "COc1ccc(COC(C)=O)cc1", "Target of assay": "MDA-MB-468 breast", "Group label": "inactive"}
{"Compound": "O=C(Nc1ccc(N2CCCCC2)c(Cl)c1)c1ccc(Br)o1", "Target of assay": "MDA-MB-468 breast", "Group label": "inactive"}
{"Compound": "CCCCCCN(C)Cc1ccc(OCCOc2ccc(CN(C)CCCCCC)cc2)cc1", "Target of assay": "MDA-MB-468 breast", "Group label": "active"}
{"Compound": "Cc1cc(Nc2ccc3c(c2)OCO3)c2cc3c(cc2n1)OCO3", "Target of assay": "MDA-MB-468 breast", "Group label": "inactive"}
{"Compound": "CCCSc1nc(N)nc2nc[nH]c12", "Target of assay": "MDA-MB-468 breast", "Group label": "inactive"}
{"Compound": "Cc1ccc(/C=C/c2c(C(=O)/C=C/c3ccc(Cl)cc3)c(C)nc3ccccc23)cc1", "Target of assay": "MDA-MB-468 breast", "Group label": "active"}
{"Compound": "O=Cc1c(OCc2cnnn2CC(=O)Nc2ccc(Br)cc2)ccc2ccccc12", "Target of assay": "MDA-MB-468 breast", "Group label": "inactive"}
{"Compound": "COc1ccc2[nH]cc(C3(c4c[nH]c5ccc(OC)cc45)C(=O)Nc4ccc(Cl)cc43)c2c1", "Target of assay": "MDA-MB-468 breast", "Group label": "inactive"}
{"Compound": "O=S(=O)(NCCNc1nccc(-c2c(-c3cccc(O)c3)nc3occn23)n1)c1cccc(F)c1", "Target of assay": "MDA-MB-468 breast", "Group label": "inactive"}
{"Compound": "COc1cc(C(=O)c2cnc(-c3c[nH]c4cccc(C)c34)[nH]2)cc(OC)c1OC", "Target of assay": "MDA-MB-468 breast", "Group label": "active"}
{"Compound": "Cc1ccc(C2SCC(=O)N2Cc2ccccc2)cc1 (stereo not given)", "Target of assay": "MDA-MB-468 breast", "Group label": "inactive"}
{"Compound": "O=C(O)c1ccc(Br)nc1", "Target of assay": "MDA-MB-468 breast", "Group label": "inactive"}
{"Compound": "CCOC(=O)[C@]1(Br)CC[C@@]1(Br)C(=O)OCC", "Target of assay": "MDA-MB-468 breast", "Group label": "inactive"}
{"Compound": "Cc1nnc(NC(=O)c2nc(S(=O)(=O)Cc3ccc(F)cc3)ncc2Cl)s1", "Target of assay": "MDA-MB-468 breast", "Group label": "active"}
{"Compound": "COc1ccc(-c2cnc(-c3ccc(F)cc3)[nH]2)cc1", "Target of assay": "MDA-MB-468 breast", "Group label": "inactive"}
{"Compound": "O=C1NC(=O)/C(=C\\c2ccncc2)N1", "Target of assay": "MDA-MB-468 breast", "Group label": "inactive"}
{"Compound": "Oc1ccc(Cc2ccc(O)c(C3CC(c4ccc(Cl)cc4)=NN3)c2)cc1C1CC(c2ccc(Cl)cc2)=NN1 (stereo not given)", "Target of assay": "MDA-MB-468 breast", "Group label": "inactive"}
{"Compound": "CCCCNC(=O)Oc1ccc(/C(=C(/C)Cc2ccc(OC)cc2)c2ccc(OCCN3CCCC3)cc2)cc1", "Target of assay": "MDA-MB-468 breast", "Group label": "inactive"}
{"Compound": "O=[N+]([O-])c1ccccc1N=Nc1ccc(O)cc1O", "Target of assay": "MDA-MB-468 breast", "Group label": "inactive"}
{"Compound": "C[C@H]1O[C@@H](O[C@H]2[C@@H](O)C[C@H](O[C@H]3[C@@H](O)C[C@H](O[C@H]4CC[C@]5(C)C6CC[C@]7(C)[C@@H](C8=CC(=O)OC8)CC[C@]7(O)C6CC[C@@H]5C4)O[C@@H]3C)O[C@@H]2C)C[C@H](O)[C@@H]1O (stereo not given in full)", "Target of assay": "MDA-MB-468 breast", "Group label": "active"}
{"Compound": "CC(=O)c1cc(C(=O)c2ccc(Br)cc2)n2cc(C)cc(C)c12", "Target of assay": "MDA-MB-468 breast", "Group label": "inactive"}
{"Compound": "COc1ccc(-c2nc3sc4c(c3c(=O)[nH]2)CCCCCC4)cc1", "Target of assay": "MDA-MB-468 breast", "Group label": "inactive"}
{"Compound": "Cc1cc2c(C(=O)NCC#N)cccc2n1-c1nc2c(c(NCc3ccccc3)n1)CCCC2", "Target of assay": "MDA-MB-468 breast", "Group label": "active"}
{"Compound": "CC(C)c1c(C(=O)c2ccccc2)c(-c2ccccc2)c(-c2ccc(F)cc2)n1CC[C@@H](O)C[C@@H](O)CC(=O)O", "Target of assay": "MDA-MB-468 breast", "Group label": "inactive"}
{"Compound": "COc1cccc(CNc2cccc3cn[nH]c23)c1O", "Target of assay": "MDA-MB-468 breast", "Group label": "inactive"}
{"Compound": "O=C(Nc1ccc(OCc2ccc(F)cc2)cc1)Nc1ccc(Cl)c(C(F)(F)F)c1", "Target of assay": "MDA-MB-468 breast", "Group label": "active"}
{"Compound": "Cc1cc2ccccc2c[n+]1CC(=O)c1ccc(-c2ccccc2)cc1", "Target of assay": "MDA-MB-468 breast", "Group label": "inactive"}
{"Compound": "COc1cc([C@@H]2c3cc4c(cc3[C@H](SC(=N)N)[C@H]3COC(=O)[C@H]23)OCO4)cc(OC)c1OC", "Target of assay": "MDA-MB-468 breast", "Group label": "active"}

The reported measurements were obtained from PubChem BioAssay (NCI).
